# credit: the supplement of paper PMC12667976

B1: library; numbered along this chain (parent)
chain: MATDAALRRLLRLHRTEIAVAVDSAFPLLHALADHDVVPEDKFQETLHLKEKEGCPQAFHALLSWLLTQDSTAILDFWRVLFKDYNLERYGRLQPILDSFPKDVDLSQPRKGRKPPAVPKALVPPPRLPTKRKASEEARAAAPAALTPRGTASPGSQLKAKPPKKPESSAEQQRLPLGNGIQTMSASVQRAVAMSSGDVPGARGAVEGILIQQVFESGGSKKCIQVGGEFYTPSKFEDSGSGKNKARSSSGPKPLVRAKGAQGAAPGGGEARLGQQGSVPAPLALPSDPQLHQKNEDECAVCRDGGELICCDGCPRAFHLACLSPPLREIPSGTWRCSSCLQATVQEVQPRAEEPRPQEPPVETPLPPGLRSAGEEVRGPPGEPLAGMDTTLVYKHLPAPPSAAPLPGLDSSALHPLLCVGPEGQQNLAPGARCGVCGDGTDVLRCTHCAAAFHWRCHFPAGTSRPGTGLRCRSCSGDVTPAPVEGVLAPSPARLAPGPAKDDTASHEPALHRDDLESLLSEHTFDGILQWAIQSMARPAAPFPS

- Variants of: B1
- procedure-text: AIRE transcriptional activation functional score (insulin promoter-GFP; nonsense median 0, synonymous median 1) (normalised score); higher = higher AIRE activity (more reporter activation)
- experimental-context: with insulin promoter-GFP reporter in HEK293
test-readout: AIRE transcriptional activation functional score

Consider the worked cases shown below.
| mutation-list | test-value |
| --- | --- |
| F236I | 1.01 |
| A541M | 0.557 |
| P254Q | 1.2 |
| P124E | 0.934 |

Look up AIRE transcriptional activation functional score: `S332P`
0.628

Next entry: `V118L`
0.953

Ok, now `I528W`
1

Cool, now `Q44V`
0.735

Follow-up item: `P355E`
0.969

Also `L97Y` , if possible.
2.69

Same question, `P125T` this time
1.42

Please give the result for `P252I` too.
0.937
